Each entry below carries its reported Emax.
- TESTED_TARGET: 5-HT2A receptor (Homo sapiens, UniProt P28223)
- Construct: expressed in transfected cells; host or cells: NIH3T3 cells, pSI expression vector
- Sequence (P28223 whole entry): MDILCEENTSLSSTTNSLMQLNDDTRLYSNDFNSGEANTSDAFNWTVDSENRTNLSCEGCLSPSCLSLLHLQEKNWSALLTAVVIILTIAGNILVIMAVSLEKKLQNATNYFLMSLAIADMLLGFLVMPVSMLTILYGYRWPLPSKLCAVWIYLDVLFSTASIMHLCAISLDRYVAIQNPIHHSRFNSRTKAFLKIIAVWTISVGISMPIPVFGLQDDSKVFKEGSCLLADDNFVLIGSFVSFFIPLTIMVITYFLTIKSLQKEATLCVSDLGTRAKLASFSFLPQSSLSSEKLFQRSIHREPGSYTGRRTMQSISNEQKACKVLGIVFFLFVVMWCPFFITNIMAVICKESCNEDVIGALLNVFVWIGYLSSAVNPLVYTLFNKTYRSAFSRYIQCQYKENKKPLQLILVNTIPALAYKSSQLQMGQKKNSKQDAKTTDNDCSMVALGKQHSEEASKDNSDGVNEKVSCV
- ASSAY: R-SAT functional receptor assay
- Type: cell-based
- RUN_PARAMETERS: 120 h, read-out: 5HT2A % INH
- Procedure: The functional receptor assay, Receptor Selection and Amplification Technology (R-SAT), was used (with minor modifications from that previously described U.S. Pat. No. 5,707,798) to screen compounds for efficacy at the 5-HT2A receptor. […] Media was then removed from the plates and marker gene activity was measured by the addition of the beta-galactosidase substrate ONPG (in PBS with 5% NP-40). […] All data were analyzed using the computer program XLFit (IDBSm). […]
Structures can show the parent of a compound that is named as a salt.

| MOLECULE | TESTED_TARGET | RESULT_UNITS | Emax |
| --- | --- | --- | --- |
| CC(C)COc1ccc(CNC(=O)N(Cc2ccc(F)cc2)C2CCN(CCC3OCCCO3)CC2)cc1 [Example 117NLS25] | 5-HT2A receptor (Homo sapiens, UniProt P28223) | % | 94 |
| CC(C)COc1ccc(CC(=O)N(Cc2ccc(F)cc2)C2CCN(CCCN3CC(C)CC(C)C3)CC2)cc1 (centres unmarked) [Example 103NLS45-B, dihydrochloride] | 5-HT2A receptor (Homo sapiens, UniProt P28223) | % | 84 |
| CCCOc1ccc(CC(=O)N(CCc2ccc(F)cc2)C2CCN(CCCN3C(=O)OC[C@@H]3C(C)C)CC2)cc1 [Example 117NLS03-B, oxalate] | 5-HT2A receptor (Homo sapiens, UniProt P28223) | % | 85 |
| CC[C@H]1COC(=O)N1CCCN1CCC(N(Cc2ccc(F)cc2)C(=O)Cc2ccc(OCC(C)C)cc2)CC1 [Example 118AF16-80, oxalate] | 5-HT2A receptor (Homo sapiens, UniProt P28223) | % | 103 |
| O=C(Cc1ccc2occc2c1)N(Cc1ccc(F)cc1)C1CCN(CCC2OCCCO2)CC1 [Example 128NLS22-A, tartrate] | 5-HT2A receptor (Homo sapiens, UniProt P28223) | % | 98 |
| CC(C)COc1ccc(CC(=O)N(Cc2ccc(F)cc2)C2CCN(CCC3OC(C)CC(C)O3)CC2)cc1 (centres unmarked) [Example 118AF37-88, oxalate] | 5-HT2A receptor (Homo sapiens, UniProt P28223) | % | 105 |
| CC(C)COc1ccc(CC(=O)N(Cc2ccc(F)cc2)C2CCN(CCCN3CC(C)OC(C)C3)CC2)cc1 (centres unmarked) [Example 103NLS69-A, dioxalate] | 5-HT2A receptor (Homo sapiens, UniProt P28223) | % | 96 |
| CC(C)COc1ccc(CC(=O)N(Cc2ccc(F)cc2)C2CCN(CCCN3C(=O)OC[C@@H]3C(C)C)CC2)cc1.O=C(O)C(=O)O [Example 117NLS01, oxalate] | 5-HT2A receptor (Homo sapiens, UniProt P28223) | % | 104 |

* * *

- TESTED_TARGET: 5-HT2A receptor (Homo sapiens, UniProt P28223)
- Construct: expressed in transfected cells; host or cells: NIH3T3 cells, pSI expression vector
- ASSAY: R-SAT functional receptor assay
- Format: cell-based
- RUN_PARAMETERS: Table 3; read-out: pIC50 (converted)
Structures can show the parent of a compound that is named as a salt.
Kindly apply the following: Criterion met if IC50 is less than 10 nM, Criterion not met in every other case.

| COMPOUND | CLASS |
| --- | --- |
| COc1ccc(CC(=O)N(Cc2ccc(C)c(O)c2)C2CCN(C)CC2)cc1 [Example 57MBT54B] | Criterion not met |
| CCOc1ccc(CC(=O)N(Cc2ccc(C)cc2)C2CCN(C)CC2)cc1 | Criterion met |
| COc1ccc(CC(=O)N(CCc2ccc(C)cc2)C2CCN(C)CC2)cc1 | Criterion met |
| COc1ccc(CC(=O)N(Cc2ccc(C)cc2)C2CCNCC2)cc1 [Example 26HCH71B] | Criterion not met |
| Cc1ccc(CN(C(=O)Cc2ccc(Cl)cc2)C2CCN(C(C)C)CC2)cc1 | Criterion met |
| COc1ccc(CC(=O)N(CCCc2ccccc2)C2CCN(C)CC2)cc1 | Criterion not met |
| COc1ccc(CC(=O)N(Cc2ccc(C)cc2)C2CCN(C3CCCC3)CC2)cc1 | Criterion met |
| Cc1ccc(CN(C(=O)Cc2ccc(I)cc2)C2CCN(C)CC2)cc1 [Example 57MBT70-2D, hydrochloride] | Criterion met |
| COc1ccc(CC(=O)N(Cc2ccc(C)cc2)C2CCN(C(C)C)CC2)cc1 | Criterion met |
| CCN1CCC(N(Cc2ccc(C)cc2)C(=O)Cc2ccc(Cl)cc2)CC1 | Criterion met |
| COc1ccc(CC(=O)N(CCc2cccc(Cl)c2)C2CCN(C)CC2)cc1 [Example 50ELH93E] | Criterion met |
| Cc1ccc(CN(C(=O)Cc2ccc(OC(F)(F)F)cc2)C2CCN(C)CC2)cc1 [Example 57MBT70-4D, hydrochloride] | Criterion met |
| COc1ccc(CNC(=O)N(Cc2ccc(C)cc2)C2CCN(C(C)(C)C)CC2)cc1 | Criterion met |
| Cc1ccc(CN(C(=O)NCc2ccccc2)C2CCN(C)CC2)cc1 | Criterion not met |
| COc1ccc(CC(=O)N(Cc2ccc(C)cc2)C2CCN(C)CC2)cc1C [Example 57MBT70-8D, hydrochloride] | Criterion not met |
| Cc1ccc(CC(=O)N(Cc2ccc(C)cc2)C2CCN(C)CC2)cc1 [Example 57MBT62B, hydrochloride] | Criterion not met |
| CCOc1ccc(CC(=O)N(CCc2ccc(F)cc2)C2CCN(C)CC2)cc1 | Criterion met |
| COc1ccc(CC(=O)N(Cc2ccc(C)cc2)C2CCN(CCC(C)(C)C)CC2)cc1 | Criterion met |
| Cc1ccc(CN(C(=O)Cc2ccc(Br)cc2)C2CCN(C)CC2)cc1 [Example 57MBT70-1D, hydrochloride] | Criterion not met |
| Cc1ccc(CN(C(=O)NCc2ccccc2)C2CCNCC2)cc1 | Criterion met |
| COc1ccc(CC(=O)N(CCc2ccc(F)cc2)C2CCN(C)CC2)cc1 [Example 50ELH93A] | Criterion met |
| COc1ccc(CC(=O)N(Cc2ccc(C)cc2)C2CCN(C)CC2)cc1O [Example 57MBT12B] | Criterion not met |
| Cc1ccc(CN(C(=O)Cc2ccc(OC(C)C)cc2)C2CCN(C)CC2)cc1 | Criterion met |
| CCN1CCC(N(Cc2ccc(C)cc2)C(=O)Cc2ccc(OC)cc2)CC1 | Criterion met |
| COc1ccc(CC(=O)N(Cc2ccc(C)cc2)C2CCN(C)CC2)cc1 | Criterion met |
| COc1ccc(CNC(=O)N(Cc2ccc(C)cc2)C2CCN(C)CC2)cc1 | Criterion met |
| CCOc1ccc(CC(=O)N(Cc2ccc(F)cc2)C2CCN(C)CC2)cc1 | Criterion met |
| COc1ccc(CC(=O)N(Cc2ccc(F)cc2)C2CCN(C)CC2)cc1 | Criterion not met |
| Cc1ccc(CN(C(=O)Cc2ccc(Cl)cc2)C2CCN(C)CC2)cc1 | Criterion met |
| CCCCOc1ccc(CC(=O)N(Cc2ccc(C)cc2)C2CCN(C)CC2)cc1 | Criterion met |

* * *

- TESTED_TARGET: 5-HT2A receptor (Homo sapiens)
- Construct: expressed in transfected cells; host or cells: NIH3T3 cells, pSI expression vector
- ASSAY: R-SAT functional receptor assay
- Type: cell-based
- RUN_PARAMETERS: IC50, Inverse Agonist; 7 points in triplicate
pIC50: −log10 of the molar value. Counter-ions that a name gives are not always drawn.
ENDPOINT: pIC50

| COMPOUND | RECORDED_RESULT |
| --- | --- |
| Cc1ccc(CN(C(=O)NCc2ccccc2)C2CCN(Cc3ccccc3)CC2)cc1 [Example 26HCH16D, hydrochloride] | 9.05 |

* * *

- TESTED_TARGET: 5-HT2A receptor (Homo sapiens)
- Construct: expressed in transfected cells; host or cells: NIH3T3 cells, pSI expression vector
- ASSAY: R-SAT functional receptor assay
- Type: cell-based
- RUN_PARAMETERS: Table 5; read-out: 5HT2A pIC50 (converted)
Structures can show the parent of a compound that is named as a salt.
Each entry below carries its reported IC50.

| COMPOUND | IC50 / nM |
| --- | --- |
| CC(C)COc1ccc(CC(=O)N(Cc2ccc(F)cc2)C2CCN(CCCN3CC(C)CC(C)C3)CC2)cc1 (stereo not shown) [Example 103NLS45-B, dihydrochloride] | 25.1 |
| CC(C)COc1ccc(CC(=O)N(Cc2ccc(F)cc2)C2CCN(CCCN3CCCC3=O)CC2)cc1 [Example 098AF76-65, hydrochloride] | 0.794 |
| O=C(Cc1ccc2occc2c1)N(Cc1ccc(F)cc1)C1CCN(CCC2OCCCO2)CC1 [Example 128NLS22-A, tartrate] | 3.16 |
| CC(C)COc1ccc(CC(=O)N(Cc2ccc(F)cc2)C2CCN(CCC3OC(C)CC(C)O3)CC2)cc1 (stereo not shown) [Example 118AF37-88, oxalate] | 0.631 |

src = patent US20080051429A1
